Parameter: IC50. Scope: all listed entries.
Test system: HT29
Assay: Growth inhibition test (MTT), cytotoxic action on tumour cell lines
Type: cell-based, human
Settings: human, 6 days
Please respond with the number in µM and leave the unit unwritten.

Examples with their reported IC50 follow.
Molecule | Uom | Observed result
CCCNC(=O)Nc1cccc(S(=O)(=O)Nc2cccc(C(CC(=O)O)NC(=O)Nc3ccc(NC(=S)N4CCC[C@@H]4C(=O)N[C@@H](CC(C)C)C(=O)NCC(=O)N[C@H](CC(C)C)C(=O)N[C@H](CC(N)=O)C(=O)N[C@@H](C(=O)O[C@@]4(CC)C(=O)OCc5c4cc4n(c5=O)Cc5cc6ccccc6nc5-4)C(C)C)cc3)c2)c1 (single isomer, unassigned) [Example 10] | µM | 0.1
CCCNC(=O)Nc1cccc(S(=O)(=O)Nc2cccc(C(CC(=O)O)NC(=O)Nc3ccc(NC(=S)N4CCC[C@@H]4C(=O)N[C@@H](CC(C)C)C(=O)NCC(=O)N[C@H](CC(C)C)C(=O)N[C@H](CC(N)=O)C(=O)N[C@@H](C(=O)O[C@@]4(CC)C(=O)OCc5c4cc4n(c5=O)Cc5cc6ccccc6nc5-4)C(C)C)cc3)c2)c1 (single isomer, unassigned) [Example 11] | µM | 0.2

Could you now consider this next molecule?
Kindly indicate its recorded IC50. Item: CCCNC(=O)Nc1cccc(S(=O)(=O)Nc2cccc(C(CC(=O)O)NC(=O)Nc3ccc(NC(=S)N4CCC[C@@H]4C(=O)N[C@@H](CC(C)C)C(=O)NCC(=O)N[C@H](CSC)C(=O)N[C@H](Cc4c[nH]cn4)C(=O)N[C@@H](C(=O)O[C@@]4(CC)C(=O)OCc5c4cc4n(c5=O)Cc5cc6ccccc6nc5-4)C(C)C)cc3)c2)c1 (single isomer, unassigned) [Example 25]
0.08

====

Target: αvβ3 receptor (Homo sapiens, UniProt P05106+P06756)
Construct: αvβ3 from human A375 cells was purified; endogenous in cells; host or cells: human A375 cells (receptor purified from the cells, analogous to Wong et al. 1996)
Sequence (P06756 31-889 limits assumed): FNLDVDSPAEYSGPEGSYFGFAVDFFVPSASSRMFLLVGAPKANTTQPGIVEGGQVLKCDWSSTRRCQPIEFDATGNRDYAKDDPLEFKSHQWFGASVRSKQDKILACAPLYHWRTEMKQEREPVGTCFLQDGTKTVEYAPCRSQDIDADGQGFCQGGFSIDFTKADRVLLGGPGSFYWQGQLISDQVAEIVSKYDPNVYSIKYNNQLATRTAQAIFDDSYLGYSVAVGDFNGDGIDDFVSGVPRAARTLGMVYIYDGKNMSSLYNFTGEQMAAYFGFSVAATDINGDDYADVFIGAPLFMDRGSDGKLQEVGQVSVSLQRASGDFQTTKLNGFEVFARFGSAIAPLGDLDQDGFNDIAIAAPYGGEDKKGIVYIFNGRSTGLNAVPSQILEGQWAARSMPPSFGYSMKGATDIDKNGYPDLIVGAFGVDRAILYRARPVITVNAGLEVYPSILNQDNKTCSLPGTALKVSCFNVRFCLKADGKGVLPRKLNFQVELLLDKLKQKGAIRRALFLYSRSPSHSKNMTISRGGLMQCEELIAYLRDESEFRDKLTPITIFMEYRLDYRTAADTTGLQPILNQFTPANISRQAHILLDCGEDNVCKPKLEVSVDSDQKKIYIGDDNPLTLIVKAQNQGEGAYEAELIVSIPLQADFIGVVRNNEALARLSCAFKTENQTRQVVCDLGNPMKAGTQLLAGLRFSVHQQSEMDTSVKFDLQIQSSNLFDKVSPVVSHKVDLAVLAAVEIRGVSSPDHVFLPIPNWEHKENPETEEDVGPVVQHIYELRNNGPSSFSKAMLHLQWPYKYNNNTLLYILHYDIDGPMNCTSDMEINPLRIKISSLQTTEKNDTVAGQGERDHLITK
Sequence (P06756 891-1048 partner limits assumed): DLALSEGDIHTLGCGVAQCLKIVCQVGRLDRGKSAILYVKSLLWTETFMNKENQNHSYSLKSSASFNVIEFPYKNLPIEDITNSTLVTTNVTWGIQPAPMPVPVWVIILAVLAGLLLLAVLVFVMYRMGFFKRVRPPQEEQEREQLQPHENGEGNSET
Sequence (P05106 27-788): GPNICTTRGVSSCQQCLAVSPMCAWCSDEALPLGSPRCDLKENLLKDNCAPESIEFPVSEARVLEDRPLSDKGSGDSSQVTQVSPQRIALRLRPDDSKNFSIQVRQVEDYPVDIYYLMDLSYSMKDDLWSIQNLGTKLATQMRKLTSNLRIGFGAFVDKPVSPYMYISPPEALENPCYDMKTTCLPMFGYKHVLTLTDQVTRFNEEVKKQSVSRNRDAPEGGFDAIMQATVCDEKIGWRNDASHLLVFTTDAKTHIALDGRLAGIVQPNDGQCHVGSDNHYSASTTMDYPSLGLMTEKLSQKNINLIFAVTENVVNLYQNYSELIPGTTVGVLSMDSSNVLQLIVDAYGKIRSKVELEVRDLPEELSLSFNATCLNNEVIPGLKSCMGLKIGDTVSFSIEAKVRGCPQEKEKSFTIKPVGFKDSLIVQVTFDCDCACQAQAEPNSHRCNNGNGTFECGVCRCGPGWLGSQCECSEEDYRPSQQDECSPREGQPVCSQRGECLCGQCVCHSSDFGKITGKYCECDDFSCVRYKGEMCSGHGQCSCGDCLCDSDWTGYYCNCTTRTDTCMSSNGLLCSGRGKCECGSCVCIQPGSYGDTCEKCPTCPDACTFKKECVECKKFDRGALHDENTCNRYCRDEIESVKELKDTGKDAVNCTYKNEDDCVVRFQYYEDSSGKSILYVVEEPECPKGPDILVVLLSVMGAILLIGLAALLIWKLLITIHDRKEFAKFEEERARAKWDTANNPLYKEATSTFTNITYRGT
Assay: αvβ3 binding test (echistatin displacement, WGA SPA beads)
Details: IC50 values of the binding to the αvβ3 receptor, αvβ3 from human A375 cells
*1 amine or outer side, *2 acyl side, *3 side chain or, on linkers, in order; H or OH if unused. Where a SMILES comes first, the peptide text is derived from it. [ ]: non-standard residue; d: D form. The star is where a group is joined. X6 = O=C(O)CC(NS(=O)(=O)c1ccc(-c2cccc(NC(=O)Nc3nc4ccccc4[nH]3)c2)cc1)c1cccc(N*)c1; Camptothecin(20R,20-O) = CC[C@]1(O*)C(=O)OCc2c1cc1n(c2=O)Cc2cc3ccccc3nc2-1; X2 = CCCNC(=O)Nc1cccc(S(=O)(=O)Nc2cccc(C(CC(=O)O)NC(=O)Nc3ccc(N*)cc3)c2)c1; X5 = O=C(Nc1cccc(-c2cccc(S(=O)(=O)*)c2)c1)Nc1nc2ccccc2[nH]1; X4 = O=C(O)CC(N[*:1])c1cccc(NC(=S)[*:2])c1; CO = O=C([*:1])[*:2]; GABA = NCCCC(=O)O
Measured metric: pIC50
Scale: negative log10 of molar concentration, which is what pIC50 denotes.

Examples with their reported pIC50 follow.
Compound | pIC50
CC[C@]1(OC(=O)[C@H](NC(=O)[C@@H](Cc2c[nH]cn2)NC(=O)[C@@H](CC(C)C)NC(=O)CNC(=O)[C@H](CC(C)C)NC(=O)[C@H]2CCCN2C(=O)Nc2cccc(C(CC(=O)O)NS(=O)(=O)c3ccc(-c4cccc(NC(=O)Nc5nc6ccccc6[nH]5)c4)cc3)c2)C(C)C)C(=O)OCc2c1cc1n(c2=O)Cc2cc3ccccc3nc2-1 (stereo partly drawn) [Example 7] ({X6-CO}-[dP]LG[dL][dH][dV]-{Camptothecin(20R,20-O)}) | 6.15
CC[C@]1(OC(=O)[C@H](NC(=O)[C@@H](Cc2c[nH]cn2)NC(=O)[C@@H](CC(C)C)NC(=O)CNC(=O)[C@H](CC(C)C)NC(=O)[C@H]2CCCN2C(=S)Nc2cccc(C(CC(=O)O)NS(=O)(=O)c3cccc(-c4cccc(NC(=O)Nc5nc6ccccc6[nH]5)c4)c3)c2)C(C)C)C(=O)OCc2c1cc1n(c2=O)Cc2cc3ccccc3nc2-1 (stereo partly drawn) [Example 5] (X5-[X4][dP]LG[dL][dH][dV]-{Camptothecin(20R,20-O)}) | 5.22

Could you now consider this next compound?
Fill: pIC50 (αvβ3 receptor (Homo sapiens, UniProt P05106+P06756)) for this compound CCCNC(=O)Nc1cccc(S(=O)(=O)Nc2cccc(C(CC(=O)O)NC(=O)Nc3ccc(NC(=O)NCCCC(=O)N4CCC[C@@H]4C(=O)N[C@@H](CC(C)C)C(=O)NCC(=O)N[C@H](CC(C)C)C(=O)N[C@H](Cc4c[nH]cn4)C(=O)N[C@@H](C(=O)O[C@@]4(CC)C(=O)OCc5c4cc4n(c5=O)Cc5cc6ccccc6nc5-4)C(C)C)cc3)c2)c1 (stereo partly drawn) [Example 17] ({X2-CO-GABA}-[dP]LG[dL][dH][dV]-{Camptothecin(20R,20-O)})
7.30
